The entries below are paired with their reported pKd.
# System Name: T1, ARHGEF11, O15085
# T1 sequence (O15085 42-136, limits assumed, looked up): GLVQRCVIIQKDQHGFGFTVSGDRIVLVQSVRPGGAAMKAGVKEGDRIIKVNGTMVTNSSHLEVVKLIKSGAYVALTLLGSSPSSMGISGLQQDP
# Assay Comment: holdup assay
# Set-up: key: below the threshold = too weak to quantify, mostly under pKd 3.1 to 4
# Settings: plain residues with an end cap or a label only (N-terminal biotin on a linker: ado-ado)
# print the numeric value only

Examples with their reported pKd follow.
INSERT INTO results (binder, property_name, reading) VALUES
  ('AKADAQESRL [PLCB2, Q00722]', 'pKd', 3.66),
  ('RDYTQSSSSL [GRM5, P41594]', 'pKd', 3.79),
  ('QLKSGRDSTV [TMEM178A, Q8NBL3]', 'pKd', 4.11),
  ('ATKDKKITTV [EXOC4, Q96A65]', 'pKd', 4.38),
  ('IKLETKKTKL [SLC15A2, Q16348]', 'pKd', 4.27);

### Prompt Indicate its recorded pKd; the binder in question is EAVTVESTSL [SLC22A11, Q9NSA0]
### Response 4.95

### Prompt Give me measured pKd, please, for this binder: PDSYHRRDFW [U2AF2, P26368]
### Response 3.6

### Prompt Look up and state reported pKd for NNMAFETTHF [SLC5A12, Q1EHB4]
### Response 3.63

### Prompt For the binder GVHSNDHSVV [LPAR1, Q92633] , report pKd.
### Response 3.58

### Prompt Please look at this binder and report its pKd: KSRPENGTVC [TMEM178B, H3BS89]
### Response 3.89
